- assayed_target: hA6 (human S100A6) (Homo sapiens, UniProt P06703)
- Construct: His tag with TEV protease cleavage site (N, cleaved yes); made in house; host or cells: Rosetta E. coli (DE3) pLysS
- method_notes: Fluorescence polarization, displacement of 5FAM probe peptide
- Type: binding
- settings: displacement of 5FAM-labelled probe, 50 mM TES, 100 mM NaCl, 0.01% Tween-20, pH 7.4, 2.4-4.2 µM protein with equal probe, technical triplicate, corrected for probe
Ends that are not written are not given here.
sequences and their reported log10 of Kd
Recall that a logarithmic scale is used here: each number is log10 of Kd in µM.

Previously resolved entries follow.
GEVTNYGYLVDQGGSAE [phage_ctl_7] = 1.63
SSSTYPGFRQSTGGSAE [phage_ctl_8] = 2.31
RHGFLQDILFKLGGSAE [phage_ctl_1] = 1.79
EGLDLMSILELIGGSAE [phage_ctl_0] = 1.69

Record SRQTTSTHEWVVGGSAE [phage_ctl_4] , field log10 of Kd: 2.01

Record GWLEQYFSRTADGGSAE [phage_ctl_2] , field log10 of Kd: 1.16
